Reference for the values: PubChem BioAssay (NCI)

# System: NCI-H226 lung
# EXPERIMENT: NCI tumour cell line growth inhibition, 48 h; in the data active = GI50 below about 0.43 µM; inactive = the rest
Hi there, use one of these labels in your reply, thanks! class 1 (active), class 0 (inactive)

Answered examples (5):
- COMPOUND: "CO[C@H](C(=O)[C@@H](O)[C@@H](C)O)[C@@H]1Cc2cc3cc(O[C@H]4C[C@@H](O[C@H]5C[C@@H](O)[C@H](O)C(C)O5)[C@H](O)C(C)O4)c(C)c(O)c3c(O)c2C(=O)[C@H]1O[C@H]1C[C@@H](O[C@H]2C[C@@H](O[C@H]3C[C@](C)(O)C(=O)C(C)O3)[C@@H](O)C(C)O2)[C@H](O)C(C)O1 (stereo not given in full)"
  MEASURED ON: "NCI-H226 lung"
  ASSIGNED CLASS: "class 1"
- COMPOUND: "Cc1ccc(C(=O)/C(=C/c2ccc([N+](=O)[O-])cc2)SCc2ccc(Cl)cc2)cc1"
  MEASURED ON: "NCI-H226 lung"
  ASSIGNED CLASS: "class 0"
- COMPOUND: "CC(C)CCC[C@@H](C)[C@H]1CC[C@H]2[C@@H]3CC=C4C[C@@H](C(C(=O)O)C(=O)O)CC[C@]4(C)[C@H]3CC[C@]12C"
  MEASURED ON: "NCI-H226 lung"
  ASSIGNED CLASS: "class 1"
- COMPOUND: "NC(=O)c1cccc2cn(-c3ccc([C@@H]4CCCNC4)cc3)nc12"
  MEASURED ON: "NCI-H226 lung"
  ASSIGNED CLASS: "class 0"
- COMPOUND: "CSc1nc2c(c(=O)[nH]1)N=C1c3ccccc3C(=O)C1C(c1ccccc1)N2 (stereo not given)"
  MEASURED ON: "NCI-H226 lung"
  ASSIGNED CLASS: "class 0"

Identify the outcome logged in this assay for the compound shown: CC1=C(C(=O)Nc2ccc(Cl)c(Cl)c2)C(c2cccc(Oc3ccccc3)c2)NC(=S)N1 (stereo not given)
class 0

Identify the outcome logged in this assay for the compound shown: CCCCOC(=O)C1OC(O[C@H]2CCC3(C)C(CCC4(C)C3CC=C3C5CC(C)(C)CCC5(C(=O)O)CC[C@]34C)C2(C)C)C(OC2OC(CO)C(O)C(O)C2O)C(OC2OC(CO)C(O)C(O)C2O)C1O (stereo not given in full)
class 0

Identify the outcome logged in this assay for the compound shown: Cc1c2cnccc2c(C)c2c1c1ccccc1n2CCCN
class 0

Identify the outcome logged in this assay for the compound shown: COc1ccc(-c2nc3sccn3c2/C(N)=N/C(=N)N)cc1OC
class 0

Identify the outcome logged in this assay for the compound shown: NC(Cc1c[nH]c2c(O)cccc12)C(=O)O (stereo not given)
class 0

###

# Test system: SK-MEL-5 melanoma
# EXPERIMENT: NCI tumour cell line growth inhibition, 48 h
ASSAY READOUT: TGI (µM)
Number only, in µM; omit the unit.

Before answering, review these 2 worked examples.
- MOLECULE: "Oc1ccc(-c2nc(-c3cccnc3)c(-c3ccc(F)cc3)[nH]2)cc1"
  UNIT STRING: "µM"
  OBS VALUE: 33.8
- MOLECULE: "CC(C)CCC[C@@H](C)[C@H]1CC[C@H]2[C@@H]3CC=C4C[C@@H](C(C(=O)O)C(=O)O)CC[C@]4(C)[C@H]3CC[C@]12C"
  UNIT STRING: "µM"
  OBS VALUE: 0.266

For the molecule CCCCCN(CCCCC)CC(O)c1cc(C)c2ccc3cc(C(C)C)ccc3c2c1 (configuration not stated) , what TGI is on record?
3.62
